Test: ATG_RORE_CIS: Attagene CIS-FACTORIAL HepG2 Assay for human RAR-related Orphan Receptor Element (RORE) (AID 2282959)
Details: HepG2 Attagene cis-factorial RORE reporter, mRNA; actives raise or lower the signal
Activity calls are given as the source filed them. How the source made its calls: active means hit-call score of the fitted dose curve at least 0.9, where 1 is the maximum; inactive means score below 0.9.
// one of active, inactive, no free text

{"MOLECULE": "CCCCOC(=O)C(C)CC (centres undefined)", "LABEL VALUE": "inactive"}

Recorded test call requested for Cc1cc(C)n(CO)n1 inactive

Kindly provide the recorded test outcome for the following molecule: Oc1c(Cl)cc(Cl)c(Cl)c1Cl active

// outcome(item) with item = C=C(C)OC(C)=O inactive

Call for entry O=C(O)/C=C/c1ccccc1 : inactive

Just curious, what result did CCCCCCCCCCCCCc1ccccc1 get here? inactive

Tell me the assay call for CCCCCCOc1ccc(N)cc1 please. inactive

Which result was noted for this molecule in the test: CN(C)Cc1cc(CN(C)C)c(O)c(CN(C)C)c1 inactive

Write down the call the test reported for this molecule. Item: Cc1ccc(S(=O)(=O)N=C=O)cc1 inactive

Call for entry C=C(C)C(=O)OCCOC(=O)C(=C)C : inactive

Kindly provide the recorded test outcome for the following molecule: CCCCCOC(=O)CCCCC inactive

What call does the record list for CCCCC/C=C\C/C=C\CCCCCCCC(=O)O ? active

Please indicate how the test categorized N=C1C=CC(=C(c2ccc(N)cc2)c2ccc(N)cc2)C=C1 . inactive

Please state the recorded outcome for this molecule: CC(C)CO inactive

What did this assay record as the result for CCCCCCCC(=O)OCC(COC(=O)CCCCCCC)OC(=O)CCCCCCC ? inactive

Which outcome did this test record for the molecule CC(C)CCOCc1ccccc1 ? inactive

// outcome(item) with item = CC1=CC(C)C(C=O)CC1 (centres undefined) inactive

Give the logged outcome of this assay for the following molecule: C=C(C)C(=O)OCC(O)COc1ccc(C(C)(C)c2ccc(OCC(O)COC(=O)C(=C)C)cc2)cc1 (centres undefined) inactive

Which outcome did this test record for the molecule CC(=O)OC1CCCCC1 ? inactive

---

Target: Myc proto-oncogene protein (Homo sapiens) (UniProt P01106)
Sequence (P01106 whole entry, looked up): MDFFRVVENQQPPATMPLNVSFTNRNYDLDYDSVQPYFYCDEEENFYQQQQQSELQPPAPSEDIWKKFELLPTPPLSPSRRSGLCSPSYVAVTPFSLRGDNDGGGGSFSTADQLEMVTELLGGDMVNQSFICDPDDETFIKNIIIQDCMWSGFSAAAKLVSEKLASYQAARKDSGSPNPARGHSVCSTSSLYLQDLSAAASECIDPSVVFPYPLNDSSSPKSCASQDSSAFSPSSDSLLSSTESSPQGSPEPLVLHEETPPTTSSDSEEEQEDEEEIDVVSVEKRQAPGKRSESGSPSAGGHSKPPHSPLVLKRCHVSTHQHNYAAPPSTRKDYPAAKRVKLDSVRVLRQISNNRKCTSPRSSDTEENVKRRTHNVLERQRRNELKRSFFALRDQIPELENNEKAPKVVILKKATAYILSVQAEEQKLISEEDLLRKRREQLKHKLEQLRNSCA
Assay: ATG_Myc_CIS: Attagene CIS-FACTORIAL HepG2 Assay for human Myelocytomatosis (Myc) Proto-Oncogene Transcription Factor (AID 2282990)
Details: HepG2, Attagene cis-reporter transcription factor activity; actives raise or lower the signal
Calls of active or inactive are those of the source. The calls were made as follows: active = hit-call score of the fitted dose curve at least 0.9, where 1 is the maximum; inactive = score below 0.9. Peptide text beside a SMILES is read from it.
ENDPOINT LABEL: outcome

The cases that follow already have their outcome on record.
{"COMPOUND": "CCCCCCCCCCCC(=O)OCC", "RESULT": "inactive"}
{"COMPOUND": "CC(=O)OCCc1ccccc1", "RESULT": "inactive"}
{"COMPOUND": "Oc1ccccc1Cc1ccccc1O", "RESULT": "inactive"}
{"COMPOUND": "CCC1COC(=O)O1 (stereo not given)", "RESULT": "inactive"}
{"COMPOUND": "COc1nccnc1CC(C)C", "RESULT": "inactive"}

outcome in this record for COC(=O)CC(C)CCC=C(C)C (stereo not given) : inactive

// outcome lookup, compound = C=CCCCCCCCCC=O , result: inactive

Lab note: measured outcome of COC(=O)[C@H](Cc1ccccc1)NC(=O)[C@@H](N)CC(=O)O (H-Asp-Phe-OMe) was inactive
